Measurement notes: chemical genetic growth profiling, strain panel (AID 1159580);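 note: tested at 20 µM; growth read once vehicle control cultures reached saturation at 30 °C; 1 = growth at the plate median or of vehicle wells; lower values mean less growth of the strain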
Condition notes: S. cerevisiae deletion strains, growth OD, locus YJL092W, strain hpr5, stronger effect = lower value
Out of some 5,500 compounds screened, about 2,000 (36%) were called active. Roughly 18% stayed inconclusive and do not appear here. The list shows a part of the results.
Reported property: normalized growth

Compound | Reported property | Observed result
NCC(O)CC(=O)O (configuration not stated) | normalized growth | 0.99
CC1CCCC(C)N1NC(=O)c1ccc(Cl)c(S(N)(=O)=O)c1 (configuration not stated) | normalized growth | 1.02
CCC(=O)OCC(=O)[C@@]1(OC(=O)CC)[C@@H](C)CC2C3CCC4=CC(=O)C=C[C@]4(C)C3(F)[C@@H](O)C[C@@]21C (some centres not stated) | normalized growth | 0.996
CCCCC(=O)O[C@]1(C(=O)CO)[C@@H](C)CC2C3CCC4=CC(=O)C=C[C@]4(C)[C@@]3(F)C(O)C[C@@]21C (some centres not stated) | normalized growth | 0.976
COc1ccc(-c2cc(=O)c3c(O)c(OC)c(OC)c(OC)c3o2)cc1OC | normalized growth | 1
CC1(C)O[C@@H]2CC3C4C[C@H](F)C5=CC(=O)CC[C@]5(C)C4[C@@H](O)C[C@]3(C)[C@]2(C(=O)CO)O1 (some centres not stated) | normalized growth | 1.02
COC(=O)NC(=S)Nc1ccccc1NC(=S)NC(=O)OC | normalized growth | 0.977
CCC(=O)O[C@]1(C(=O)CCl)[C@@H](C)CC2C3CCC4=CC(=O)C=C[C@]4(C)[C@@]3(F)[C@@H](O)C[C@@]21C (some centres not stated) | normalized growth | 1.02
Cc1ccccc1N1C(=O)c2cc(S(N)(=O)=O)c(Cl)cc2NC1C (configuration not stated) | normalized growth | 0.992
O=C(O)c1ccccc1O | normalized growth | 0.996
Nc1nc(/C(=C/CC(=O)O)C(=O)N[C@@H]2C(=O)N3C(C(=O)O)=CCS[C@H]23)cs1 | normalized growth | 1
COP(N)(=O)SC (configuration not stated) | normalized growth | 0.998
C[C@@H]1CC[C@@]23CCC4(C)[C@@](C=CC5[C@@]6(C)CC[C@H](O)C(C)(C)C6CC[C@]54C)(OC2=O)C3[C@H]1C (some centres not stated) | normalized growth | 1.01
CCC(=O)OCC(=O)C1(OC(=O)CC)C(C)CC2C3CCC4=CC(=O)C=CC4(C)C3(Cl)C(O)CC21C (configuration not stated) | normalized growth | 0.978
CC(C)=CC1C(CO)C1(C)C (configuration not stated) | normalized growth | 1.01
COc1ccccc1N1CCN(CCCNc2cc(=O)n(C)c(=O)n2C)CC1 | normalized growth | 1.01
COC(=O)C[C@H]1C(C)(C)[C@@H](O)[C@@H]2CC3=C4CC(O)O[C@@H](c5ccoc5)[C@]4(C)CCC3[C@@]1(C)C2=O (some centres not stated) | normalized growth | 1.03

----------
Measurement notes: chemical genetic growth profiling, strain panel (AID 1159580)
Condition notes: S. cerevisiae deletion strains, growth OD, locus YDR335W, strain msn5, stronger effect = lower value
Among all 5,500 compounds or so, about 2,000 (36%) were called active. Another 18% or so got no clear call; they are omitted. Some of the results follow.

Compound | normalized growth
C/C=C(\C)C(=O)O[C@@H]1c2c(ccc3ccc(=O)oc23)OC(C)(C)[C@@H]1OC(C)=O | 1.02 (inactive)
COc1ccccc1N1CCN(CCCNc2cc(=O)n(C)c(=O)n2C)CC1 | 1.02 (inactive)
C[C@H]1O[C@@H](O[C@H]2[C@@H](O)C[C@H](O[C@H]3[C@@H](O)C[C@H](O[C@H]4CC[C@]5(C)C6CC[C@]7(C)[C@@H](C8=CC(=O)OC8)CC[C@]7(O)C6CC[C@@H]5C4)O[C@@H]3C)O[C@@H]2C)C[C@H](O)[C@@H]1O (stereo partly drawn) | 0.984 (inactive)
COc1ccc(-c2cc(=O)c3c(O)c(OC)c(OC)c(OC)c3o2)cc1OC | 1 (inactive)
COC1C(O)C(O[C@H]2CC[C@]3(C=O)C4C(CC[C@]3(O)C2)[C@@]2(O)CC[C@H](C3=CC(=O)OC3)[C@@]2(C)C[C@H]4OC(C)=O)OC(C)C1OC(C)=O (stereo partly drawn) | 0.982 (inactive)
CCCc1nn(C)c2c(=O)[nH]c(-c3cc(S(=O)(=O)N4CCN(C)CC4)ccc3OCC)nc12 | 0.993 (inactive)
Cc1ccccc1N1C(=O)c2cc(S(N)(=O)=O)c(Cl)cc2NC1C (stereo not drawn) | 0.973 (inactive)
Cc1c(OCC(F)(F)F)ccnc1CS(=O)c1nc2ccccc2[nH]1 (stereo not drawn) | 1.01 (inactive)
Oc1ccc2c3c1OC1[C@@H](O)CC[C@@]4(O)[C@@H](C2)N(CC2CCC2)CC[C@]314 (stereo partly drawn) | 1 (inactive)
C[C@@H]1CCC2[C@](C)(CO)[C@@H](O)CC[C@]2(C)[C@@]12CC[C@@](CO)(CCO)O2 (stereo partly drawn) | 0.978 (inactive)
C=CCSCC=C | 0.987 (inactive)
C[C@]12CCC3C(CC[C@]4(O)C[C@@H](O)CC[C@]34C=O)[C@@]1(O)CCC2C1=CC(=O)OC1 (stereo partly drawn) | 0.989 (inactive)
CCn1nc(C(=O)O)c(=O)c2cc3c(cc21)OCO3 | 1.01 (inactive)

----------
Quick reference for normalized growth among some compounds
Measurement notes: chemical genetic growth profiling, strain panel (AID 1159580);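 note: tested at 20 µM; growth read once vehicle control cultures reached saturation at 30 °C; 1 = growth at the plate median or of vehicle wells; lower values mean less growth of the strain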
Condition notes: S. cerevisiae deletion strains, growth OD, locus YAL030W, strain snc1, stronger effect = lower value
Screen size: about 5,500 compounds; about 2,000 (36%) were called active. About 18% were inconclusive and are not listed. The list shows a part of the results.
Reported property: normalized growth

Compound | Reported property | Observed result
COC(=O)CC1C(C)(C)C(OC(C)=O)[C@@H]2[C@@H](OC(C)=O)[C@]34O[C@@]2(O)[C@]1(C)C3CC[C@]1(C)C4=CC(=O)O[C@H]1c1ccoc1 (stereo partly drawn) | normalized growth | 1.01
O=C(CCCN1CCC(O)(c2ccc(Cl)cc2)CC1)c1ccc(F)cc1 | normalized growth | 0.991
O=C1CC2(CCCC2)CC(=O)N1CCCCN1CCN(c2ncccn2)CC1 | normalized growth | 0.998

----------
Measurement notes: chemical genetic growth profiling, strain panel (AID 1159580);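 note: tested at 20 µM; growth read once vehicle control cultures reached saturation at 30 °C; 1 = growth at the plate median or of vehicle wells; lower values mean less growth of the strain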
Condition notes: S. cerevisiae deletion strains, growth OD, locus YHR079C, strain IRE1, stronger effect = lower value
In all, about 5,500 compounds went through this assay and about 2,000 (36%) were called active. About 18% were inconclusive and are not listed. This is one part of the list.
Reported property: normalized growth

Compound | Reported property | Observed result
CO[C@@H]1C[C@H](O[C@H]2CC[C@]3(C)C4CC[C@]5(C)[C@@H](C6=CC(=O)OC6)CC[C@]5(O)[C@@H]4CC[C@]3(O)C2)O[C@H](C)[C@@H]1O (stereo not given in full) | normalized growth | 1.07
CO[C@@H]1[C@@H](OC(N)=O)[C@@H](O)[C@H](Oc2ccc3c(O)c(NC(=O)c4ccc(O)c(CC=C(C)C)c4)c(=O)oc3c2C)OC1(C)C | normalized growth | 0.87
CC1Cc2ccccc2N1NC(=O)c1ccc(Cl)c(S(N)(=O)=O)c1 (stereo not given) | normalized growth | 0.989
CC(C)(C)NCC(O)COc1cccc2c1CCCC2=O (stereo not given) | normalized growth | 0.954
CCC(=O)NCC[C@@H]1CCc2ccc3c(c21)CCO3 | normalized growth | 0.953

----------
Below, each of the molecules is paired with its reported normalized growth value.
Measurement notes: chemical genetic growth profiling, strain panel (AID 1159580);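 note: tested at 20 µM; growth read once vehicle control cultures reached saturation at 30 °C; 1 = growth at the plate median or of vehicle wells; lower values mean less growth of the strain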
Condition notes: S. cerevisiae deletion strains, growth OD, locus YBL061C, strain skt5, stronger effect = lower value
About 2,000 (36%) of roughly 5,500 compounds were called active. Inconclusive results (about 18%) are left out. Some of the results follow.

Molecule | normalized growth
Nc1ccc(S(=O)(=O)Nc2ncccn2)cc1 | 0.985
CC1Cc2ccccc2N1NC(=O)c1ccc(Cl)c(S(N)(=O)=O)c1 (stereo not given) | 0.999
Cc1ccc(-c2nc3ccc(C)cn3c2CC(=O)N(C)C)cc1 | 0.998
CC1(C)O[C@@H]2CC3C4C[C@H](F)C5=CC(=O)CC[C@]5(C)C4[C@@H](O)C[C@]3(C)[C@]2(C(=O)CO)O1 (stereo not given in full) | 1.01
CC1(C)C(O)CC(=O)C2(C)C1CC(O)C1(C)C2CCC2(C)C(c3ccoc3)OC(=O)C3OC321 (stereo not given) | 1
N#Cc1c(Cl)cccc1Cl | 0.979
COc1ccc(-c2cc(=O)c3c(O)cc(O)c(-c4cc(-c5cc(=O)c6c(O)cc(O)cc6o5)ccc4OC)c3o2)cc1 | 1.01
CC1=CC(=O)C(C(C)C)=CC1=O | 0.992
CCCCCC(O)C1C(=O)OC(C)C(O)/C=C/C=C/C=C/C=C/C=C(\C)C(O)CC(O)CC(O)CC(O)CC(O)CC(O)CC1O (stereo not given) | 0.982
CCC(=O)OCC(=O)[C@@]1(OC(=O)CC)[C@@H](C)CC2C3CCC4=CC(=O)C=C[C@]4(C)C3(F)[C@@H](O)C[C@@]21C (stereo not given in full) | 1.01
C[N+]1(C)C[C@H](O)[C@H](C(=O)[O-])C1 | 1.01
CC(C)C[C@@H](NC(=O)OCC1c2ccccc2-c2ccccc21)C(=O)O | 1.01
NC[C@H]1O[C@H](OC2[C@@H](N)C[C@@H](N)[C@H](O[C@H]3O[C@H](CO)[C@@H](O)[C@H](N)[C@H]3O)[C@H]2O)[C@H](O)[C@@H](O)[C@@H]1O (stereo not given in full) | 1.01
COC(=O)CC1C(C)(C)C(OC(C)=O)[C@@H]2[C@@H](OC(C)=O)[C@]34O[C@@]2(O)[C@]1(C)C3CC[C@]1(C)C4=CC(=O)O[C@H]1c1ccoc1 (stereo not given in full) | 0.998
CCn1nc(C(=O)O)c(=O)c2cc3c(cc21)OCO3 | 1.02
COc1cc2c(cc1OC)-c1c(oc3cc(O)cc(O)c3c1=O)CO2 | 1.01
C[C@@H]1CCC2[C@](C)(CO)[C@@H](O)CC[C@]2(C)[C@@]12CC[C@@](CO)(CCO)O2 (stereo not given in full) | 0.967
NCCCC(O)(P(=O)(O)O)P(=O)(O)O | 0.978
COC(=O)N/N=C\c1c[n+]([O-])c2ccccc2[n+]1[O-] | 0.975
O=C(/C=C(\O)c1ccccc1)c1ccccc1O | 0.776
O=c1c2cc(O)c(O)cc2oc2cc(O)c(C3O[C@H](CO)[C@H](O)[C@@H](O)[C@H]3O)c(O)c12 (stereo not given in full) | 1.03
CO[C@@H]1[C@@H](OC(N)=O)[C@@H](O)[C@H](Oc2ccc3c(O)c(NC(=O)c4ccc(O)c(CC=C(C)C)c4)c(=O)oc3c2C)OC1(C)C | 1.02
O=C(CCCN1CCC(O)(c2ccc(Cl)cc2)CC1)c1ccc(F)cc1 | 0.951
COC(=O)[C@H]1[C@H]2C[C@H]3c4[nH]c5cc(OC)ccc5c4CCN3C[C@H]2C[C@@H](OC(=O)c2cc(OC)c(OC)c(OC)c2)[C@@H]1OC | 1.02
CCC(=O)NCC[C@@H]1CCc2ccc3c(c21)CCO3 | 1.02
